# Protocol: soluble fraction after stress (log2 fold change); higher = more stays soluble; pooled small domains, quantitative proteomics
# Cond: stress: pH 4
Reported soluble fraction (log2) by item:

Field soluble fraction (log2) (entry HMNSEERVLDTASKWLVKLDEGLDESEAQVLKVWLATPLHRDTFLEMVALWDKMSVLNELADIV ) reads -1.94

Field soluble fraction (log2) (entry HMSEKIDINNSNELELKQLPLTNEQIKSLIEFRRLHGEIQNIYELKNIDFFNIEKVHELKAHIEIKKII ) reads -1.05

Field soluble fraction (log2) (entry HMRSKTSYAVWTPIQIDAGSQMQALQSKGFNTVLMEGGISVGIRSDKAQAQALLNRLQGAGFTGQLREVN ) reads 0.259

Field soluble fraction (log2) (entry HMTGTKEQQVVMLNNILQKQLQAFELQGKRDYPMVTMKNMYNTLSKMVENAGLQTVESYFVDPIKGQQM ) reads -0.266

Field soluble fraction (log2) (entry HMAELAKAKLDAAVQVALLKAGALDTDYLAYKLQGMDGVALDDKGSLTGWDTTLETLKSQYPTQFA ) reads -0.388

Field soluble fraction (log2) (entry HMYQPLYEQIKRMLTQSLIDGEWKAGEMIPSEMELAARFKVSQGTVRKAIDELVSENILMRRQGKGTFVH ) reads 0.22

Others:
Field soluble fraction (log2) (entry HMGNPSGLPLPRFASTRSEPINVRVGPGQKYDIAWTYLKSGIPVEIIQEFDTWRKIRDFDGAEGWIHQNLL ) reads -0.398

Field soluble fraction (log2) (entry HMDEAETELIRRMVSEHPPTTKRERDIVQMRLRGYLFVEIGEAYGISFQRAAQIYNAAVEKIKEYWD ) reads -0.454

Field soluble fraction (log2) (entry HMNDGTIRVGTNVTIKPSAKRWATGQNIYYGVKGKTYKVIQMNGNRLLLDKVISWINKGDVYVPGS ) reads 0.192

Field soluble fraction (log2) (entry HMGEQYYVLIDNKQNGPHNINAIQKMIDQNIVNRQTLIWKKGMTDWGNIMDDKDLKEMVNKIP ) reads 0.0559

Field soluble fraction (log2) (entry HMGKTKFTEMSALELKAYAELNNNSMHWVYRMLYIGGGDVGFRKGMKELGYSGKFIWMTLERLKKS ) reads -0.583

Field soluble fraction (log2) (entry HMDGFAEFWSAYPKKVGKGAAEASWRKHRPPLQTVLDAVKRQAESDQWRKDGGQFIPNPATWLNQKRWEDD ) reads -0.101

Field soluble fraction (log2) (entry HMESENANVNRAMLTGIASMHAGQLETALNKFNEVIQLAPDFAEGWNKRATIFYLMKKFDRSVNDIAQTLK ) reads -0.741

Field soluble fraction (log2) (entry HMIDVGSKIRSLRKSKNISISTLAKNSDLSTGLISQIERNMVVPSIVAMWKISKALDINIGYFFE ) reads -0.109

Field soluble fraction (log2) (entry HMAGFGDSLEKMSDAVEALKLLMSTEDARNDQNIQKIARELKDVFNKYRTHLRKSYPDQYDRIKSTL ) reads -0.62

Field soluble fraction (log2) (entry HMGGNDALEIAKSNPQVIEVLGEPVTKDGMGSYSVNYKNGHKTSEATIPIEGPNGTATLHVKTSGSDDAL ) reads 0.22

Field soluble fraction (log2) (entry HMSRQAPIGHRIRGRRKDIGMTQNALAKAAGISPSYLNLIEHNRRSIGGGLLMRIAAILDIHPHTL ) reads 0.0837
